- measured on: δ-opioid receptor of the mouse vas deferens (MVD) (mouse), P32300
- Sequence (P32300 whole entry, stated change not applied): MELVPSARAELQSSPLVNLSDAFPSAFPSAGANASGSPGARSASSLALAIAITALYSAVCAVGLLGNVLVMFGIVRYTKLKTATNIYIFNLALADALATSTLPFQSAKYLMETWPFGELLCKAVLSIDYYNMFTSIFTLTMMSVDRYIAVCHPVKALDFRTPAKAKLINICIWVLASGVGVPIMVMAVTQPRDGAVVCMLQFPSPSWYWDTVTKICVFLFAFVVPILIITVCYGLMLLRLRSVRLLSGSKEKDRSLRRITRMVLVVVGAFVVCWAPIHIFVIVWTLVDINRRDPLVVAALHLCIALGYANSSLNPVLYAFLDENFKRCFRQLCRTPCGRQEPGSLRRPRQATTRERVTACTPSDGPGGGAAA
- measurement description: cell-based or functional assay
Non-standard residues stand in square brackets, D forms with d. *: point of attachment. des‑NH2‑α‑pyrrolidine‑1‑yl = Dmt (2',6'-dimethyl-L-tyrosine) with the α-amine replaced by pyrrolidine-1-yl, Cc1cc(O)cc(C)c1C[C@@H](C(=O)*)N1CCCC1; NH(1-Adamantyl) = C1C2CC3CC1CC(N*)(C2)C3; Dmt = Cc1cc(O)cc(C)c1C[C@H](N)C(=O)O; Tic = O=C(O)[C@@H]1Cc2ccccc2CN1; dTic = O=C(O)[C@H]1Cc2ccccc2CN1
Can you tell me MVD Ke for the items I'm about to list?
Give bare numbers, in nM.

Some binders with known MVD Ke results, for comparison:
>  <binder>
H-[Dmt]-[Tic]-Ala-{NH(1-Adamantyl)} [H-Dmt-Tic-Ala-NH-1-adamantane]

>  <MVD Ke [nM]>
0.51

$$$$
>  <binder>
{N,N‑dimethyl}-[Dmt]-[dTic]-{NH(1-Adamantyl)} [N,N(Me)2-Dmt-D-Tic-NH-1-adamantane]

>  <MVD Ke [nM]>
128

$$$$

Here is the next item to consider.
Problem: Look up MVD Ke for this binder: {des‑NH2‑α‑pyrrolidine‑1‑yl}-[Dmt]-[Tic]-OH [[des-NH2-α-pyrrolidine-1-yl]-Dmt-Tic-OH]
Result: 121
